test: Pharmacokinetics in control rats after gavage of JYPs; assay type: in vivo, Sprague Dawley (SD) rats; details: male, Sprague Dawley, rat, plasma, oral JYPs, range over compounds and doses, read-out: half-life (t1/2)
recordedEndpoint: half-life

The examples below pair each entry with its known result.
# compound, half-life
records = [
    ("O=C1C[C@@H](c2ccc(O)cc2)Oc2cc(O)ccc21", "9.53 to 16.8 h"),
    ("C[C@H]1O[C@@H](O[C@H]2CC[C@@]3(C)[C@@H](CC[C@]4(C)[C@@H]3C=C[C@]35OC[C@@]6(CCC(C)(C)C[C@H]63)[C@@H](O)C[C@]54C)[C@]2(C)CO)[C@H](O)[C@@H](O[C@@H]2O[C@H](CO)[C@@H](O)[C@H](O)[C@H]2O)[C@H]1O", "7.52 to 13.7 h"),
]

Continue with the compound presented below.
## Input Please look up its half-life: CCC/C=C1\OC(=O)C2=C1CCC=C2 [Z-Ligustilide]
## Output 14.4 to 24 h

----------
experiment: Pharmacokinetics in ADHD model rats after gavage of JYPs; assay type: in vivo, SHR rats (ADHD model); conditions: male, SHR, rat, plasma, 1.08 g/kg/day; ADHD model rats, oral JYPs low dose 1.080 g/kg/d (1st of 3 values)
recordedEndpoint: Cmax

# compound, Cmax
rows = [
    ("C[C@H]1O[C@@H](O[C@H]2CC[C@@]3(C)[C@@H](CC[C@]4(C)[C@@H]3C=C[C@]35OC[C@@]6(CCC(C)(C)C[C@H]63)[C@@H](O)C[C@]54C)[C@]2(C)CO)[C@H](O)[C@@H](O[C@@H]2O[C@H](CO)[C@@H](O)[C@H](O)[C@H]2O)[C@H]1O", "40.9 ng/mL"),
    ("CCC/C=C1\\OC(=O)C2=C1CCC=C2 [Z-Ligustilide]", "4.07 ng/mL"),
]

Continue with the compound presented below.
## Input Please look up its Cmax: C[C@H]1O[C@@H](O[C@H]2CC[C@@]3(C)[C@@H](CC[C@]4(C)[C@@H]3C=C[C@]35OC[C@@]6(CCC(C)(C)C[C@H]63)[C@H](O)C[C@]54C)[C@]2(C)CO)[C@H](O)[C@@H](O[C@@H]2O[C@H](CO)[C@@H](O)[C@H](O)[C@H]2O)[C@H]1O
## Output 22.6 ng/mL

----------
I'd be grateful if you could share measured half-life for these entries.
assay: Pharmacokinetics in ADHD model rats after gavage of JYPs; assay type: in vivo, SHR rats (ADHD model); settings: male, SHR, rat, plasma; ADHD model rats, oral JYPs

# inputSmiles, half-life
records = [
    ("C=C(CC[C@@H](C(=O)O)[C@H]1[C@H](O)C[C@@]2(C)C3=CC[C@@H](C(=C)C)[C@](C)(CCC(=O)O)C3=CC[C@]12C)C(C)C", "< 10.3 h"),
]

Continue with the compound presented below.
## Input Please look up its half-life: C=C(C)[C@@H]1CC=C2C(=CC[C@]3(C)[C@@H]([C@@H](CCC=C(C)C)C(=O)O)[C@H](O)C[C@@]23C)[C@@]1(C)CCC(=O)O
## Output < 10.3 h

----------
assay: Pharmacokinetics in control rats after gavage of JYPs; type: in vivo, Sprague Dawley (SD) rats; settings: oral JYPs high dose 4.320 g/kg/d (3rd of 3 values)
recordedEndpoint: AUMC(0-t)

# compound, result
records = [
    ("C[C@H]1O[C@@H](O[C@H]2CC[C@@]3(C)[C@@H](CC[C@]4(C)[C@@H]3C=C[C@]35OC[C@@]6(CCC(C)(C)C[C@H]63)[C@H](O)C[C@]54C)[C@]2(C)CO)[C@H](O)[C@@H](O[C@@H]2O[C@H](CO)[C@@H](O)[C@H](O)[C@H]2O)[C@H]1O [Saikosaponin D]", "830.12± 197.07 ng/mL*(h)²"),
    ("CCCC=C1OC(=O)C2=C1CCC1C3C=C4C(=O)OC(=CCCC)C4(CC3)C21 (stereo not shown) [Levistilide A]", "323.93± 97.01 ng/mL*(h)²"),
    ("C[C@H]1O[C@@H](O[C@H]2CC[C@@]3(C)[C@@H](CC[C@]4(C)[C@@H]3C=C[C@]35OC[C@@]6(CCC(C)(C)C[C@H]63)[C@@H](O)C[C@]54C)[C@]2(C)CO)[C@H](O)[C@@H](O[C@@H]2O[C@H](CO)[C@@H](O)[C@H](O)[C@H]2O)[C@H]1O [Saikosaponin A]", "1333.05± 317.31 ng/mL*(h)²"),
]

Continue with the compound presented below.
## Input Please look up its AUMC(0-t): CCC/C=C1\OC(=O)C2=C1CCC=C2 [Z-Ligustilide]
## Output 319.41± 64.35 ng/mL*(h)²

Origin of measurements: paper PMC10976160
